# Test system: SF-268 CNS
# procedure-text: NCI tumour cell line growth inhibition, 48 h
Recorded TGI for the following compounds

The examples below pair each entry with its known result.
compound	readout-name	val
O=c1oc2c/c(=C\c3ccc([N+](=O)[O-])cc3)c(=O)c3cccc1c3-2	TGI	> 100 µM
COc1cc(/C=C/C(=O)Oc2ccc(NC(C)=O)cc2)ccc1C(=O)O/C=C/c1ccccc1	TGI	> 100 µM
O=c1nc(N2CCNCC2)oc2cc(Cl)oc(=O)c12	TGI	15.9 µM
O=C(Nc1cc(C(F)(F)F)ccc1Cl)c1cccc(NC2=C(Cl)C(=O)N(Cc3ccccc3)C2=O)c1	TGI	> 100 µM
Cn1c2ccccc2c(=O)c2cccc(C(=O)NC(CS)C(=O)O)c21 (stereo unspecified)	TGI	> 100 µM
Nc1n[nH]c(=O)c2c1c(I)cn2C1OC(CO)C(O)C1O (stereo unspecified)	TGI	25.7 µM
CC1(Br)Cc2ccccc2C1=O (stereo unspecified)	TGI	20.2 µM
CC1OC(OC2C(OC(=O)[C@]34CCC(C)(C)C[C@H]3C3=CC[C@@H]5[C@@]6(C)CC[C@H](OC7OC(CO)C(O)C(O)C7OC7OC(CO)C(O)C(O)C7O)C(C)(C)[C@@H]6CC[C@@]5(C)[C@]3(C)CC4)OCC(O)C2O)C(O)C(OC2OCC(O)C(O)C2O)C1OC1OCC(O)C(OC2OCC(O)C(O)C2O)C1O (stereo partly specified)	TGI	33.1 µM
CC1(C)OC2C(O)C(CO)OC2(C(F)F)O1 (stereo unspecified)	TGI	> 100 µM
CC(=O)NC1=N/C(=C\c2ccc(Cl)cc2)C(=O)N1/C=C1\C(=O)Oc2ccccc2C1=O	TGI	> 100 µM

Item CC(C)=CC1CC(=[N+]=[N-])C(=O)C1(C)C (stereo unspecified) has what recorded TGI? > 100 µM

Item CCC(=O)O[C@H]1CC[C@H]2[C@@H]3CCC4=C/C(=N/OC(=O)c5cccc6cc7ccccc7nc56)CC[C@]4(C)[C@H]3CC[C@]12C has what recorded TGI? > 100 µM

###

# Tested on: MDA-N
# procedure-text: NCI tumour cell line growth inhibition, 48 h
Assign T to entries whose TGI meets or exceeds 30 µM; assign F to the rest.

> print(dat)
                                   molecule  classification
1  O=C(O)CCSC(CC1(c2ccc(Cl)cc2)NC(=O)CCS1)c1ccccc1 (stereo unspecified)               T

Please indicate if the recorded TGI for CC(=O)O[C@H]1CC[C@@]2(C)C(=CC[C@H]3[C@@H]4C/C(=C\c5ccc(N(C)C)cc5)[C@H](OC(C)=O)[C@@]4(C)CC[C@@H]32)C1 meets or exceeds 30 µM. T

Please indicate if the recorded TGI for COc1cccc2nc3c(C(=O)NCCN(C)C)cccc3cc12 meets or exceeds 30 µM. F

Please indicate if the recorded TGI for CC1(Br)Cc2ccccc2C1=O (stereo unspecified) meets or exceeds 30 µM. F

Please indicate if the recorded TGI for CC(C)=CCc1cc2c(cc1O)OC[C@H]1c3cc4c(cc3O[C@@H]21)OCO4 meets or exceeds 30 µM. T

###

Recorded TGI for the following compounds
# Tested on: SK-MEL-2 melanoma
# procedure-text: NCI tumour cell line growth inhibition, 48 h

The examples below pair each entry with its known result.
> print(dat)
                                   compound  target.under.test       val
1  CC(Oc1ccc(OCC2CCCCC2)cc1)C(=O)OCC(=O)c1ccc(-c2ccccc2)cc1 (stereo not drawn)  SK-MEL-2 melanoma  > 100 µM
2  COc1ccc2c(C(=O)c3cn(CCN4CCOCC4)c4ccccc34)cccc2c1  SK-MEL-2 melanoma  > 100 µM

Item CCOC(=O)NNC(=O)NCCCCNC(=O)NNC(=O)OCC has what recorded TGI? > 100 µM
